tested on: AREc32 reporter cell line (antioxidant response element of rat Gsta2, Nrf2 target gene); experiment: AREc32 luciferase reporter activation; format: cell-based, human; conditions: human, Arec32, 19 h; concentration increasing luminescence signal 2-fold above vehicle; nineteen hours; read-out: AREc32 EC2X (nM) (Mean ± SD)
PROPERTY_LABEL: EC (2-fold) (nM)
Return type: number; implicit unit nM.

Guide cases for EC (2-fold), answers given:
molecule="Cc1noc([C@]23CCC(C)(C)C[C@H]2[C@H]2C(=O)C=C4[C@@]5(C)C=C(C#N)C(=O)[C@@H](C)[C@@H]5CC[C@@]4(C)[C@]2(C)CC3)n1 [CC3, reference compound]" quantity_unit=nM reported_result=7.11
molecule=CC1(C)CC[C@]2(c3noc(CCN)n3)CC[C@]3(C)[C@H](C(=O)C=C4[C@@]5(C)C=C(C#N)C(=O)C(C)(C)[C@@H]5CC[C@]43C)[C@@H]2C1 quantity_unit=nM reported_result=9.21
molecule=CCc1noc([C@]23CCC(C)(C)C[C@H]2[C@H]2C(=O)C=C4[C@@]5(C)C=C(C#N)C(=O)[C@@H](C)[C@@H]5CC[C@@]4(C)[C@]2(C)CC3)n1 quantity_unit=nM reported_result=10.3
molecule=C[C@@H]1C(=O)C(C#N)=C[C@]2(C)C3=CC(=O)[C@@H]4[C@@H]5CC(C)(C)CC[C@]5(c5nc(C(F)(F)F)no5)CC[C@@]4(C)[C@]3(C)CC[C@@H]12 quantity_unit=nM reported_result=33.7
molecule=CC1(C)CC[C@]2(c3nnc(CF)o3)CC[C@]3(C)[C@H](C(=O)C=C4[C@@]5(C)C=C(C#N)C(=O)C(C)(C)[C@@H]5CC[C@]43C)[C@@H]2C1 quantity_unit=nM reported_result=3.23

q: EC (2-fold) lookup needed for "CC1(C)CC[C@]2(c3nnn(CCO)n3)CC[C@]3(C)[C@H](C(=O)C=C4[C@@]5(C)C=C(C#N)C(=O)C(C)(C)[C@@H]5CC[C@]43C)[C@@H]2C1" , thanks.
a: 10.5

q: Entry under review: "CC1(C)CC[C@]2(c3nc(CO)no3)CC[C@]3(C)[C@H](C(=O)C=C4[C@@]5(C)C=C(C#N)C(=O)C(C)(C)[C@@H]5CC[C@]43C)[C@@H]2C1" . Reported EC (2-fold)?
a: 2.58

----------
system: RAW 264.7 cells; test: Nitric oxide suppression assay (IFNγ-induced NO production); format: cell-based, mouse; settings: average of ratios from replicate experiments; benchmark RTA 402
PROPERTY_LABEL: NO IC50 Relative to RTA 402 (fold) (Mean ± SD)
Value expressed in fold; do not type the unit.

Please review the entries below; each comes with its answer.
compound="CC1(C)CC[C@]2(c3nnc(C(F)F)o3)CC[C@]3(C)[C@H](C(=O)C=C4[C@@]5(C)C=C(C#N)C(=O)C(C)(C)[C@@H]5CC[C@]43C)[C@@H]2C1 [Compound T44]" quantity_unit=fold reported_result=1.24
compound="CC1(C)CC[C@]2(c3nc(C4CCC4)no3)CC[C@]3(C)[C@H](C(=O)C=C4[C@@]5(C)C=C(C#N)C(=O)C(C)(C)[C@@H]5CC[C@]43C)[C@@H]2C1 [Compound T31]" quantity_unit=fold reported_result=5.76
compound="CC1(C)CC[C@]2(c3nc(C4CCCCC4)no3)CC[C@]3(C)[C@H](C(=O)C=C4[C@@]5(C)C=C(C#N)C(=O)C(C)(C)[C@@H]5CC[C@]43C)[C@@H]2C1 [Compound T33]" quantity_unit=fold reported_result=15.81
compound="CC1(C)CC[C@]2(c3nnc(CF)o3)CC[C@]3(C)[C@H](C(=O)C=C4[C@@]5(C)C=C(C#N)C(=O)C(C)(C)[C@@H]5CC[C@]43C)[C@@H]2C1 [Compound T11]" quantity_unit=fold reported_result=0.37

q: Data request, read-out NO IC50 Relative to RTA 402 (fold) (Mean ± SD), for CC1(C)CC[C@]2(c3noc(C(F)F)n3)CC[C@]3(C)[C@H](C(=O)C=C4[C@@]5(C)C=C(C#N)C(=O)C(C)(C)[C@@H]5CC[C@]43C)[C@@H]2C1 [Compound T41]
a: 2.79
